Biological target: T1, recombinant biotinylated human PAR2 extracellular domain (residues 1-75), N-terminal AviTag, C-terminal Flag … (human, UniProt P55085 26-75, biotin on the AviTag (enzymatic biotinylation))
T1 construct: also called Bio-human-PAR2 ECD; human PAR2 ECD; not shown: N-terminal AviTag (Avidity LLC); C-terminal Flag and poly Histidine tags
T1 sequence (P55085 26-75): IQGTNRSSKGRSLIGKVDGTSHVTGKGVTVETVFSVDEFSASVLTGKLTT
Assay: Biacore SPR 25 C, pH 7.4
Property Name: koff

>>> meas_value("PaB670128 Fab (Fab, V domains shown, Fab; also called ZZ1RUE-A01) VH: EVQLLESGGGLVQPGGSLRLSCAASGFTFSSYAMNWVRQAPGKGLEWVSTISYHGHHISYADSHHHRFTISRDNSKNTLYLQMNSLRAEDTAVYYCARIHHDPMDVWGQGTLVTVSS VL: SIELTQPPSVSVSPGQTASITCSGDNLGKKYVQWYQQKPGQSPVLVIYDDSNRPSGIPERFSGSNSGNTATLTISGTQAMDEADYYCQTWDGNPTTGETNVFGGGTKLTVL")
"0.00365 s⁻¹"

Let us examine a further case.
Report measured koff; entry is PaB670136 Fab (Fab, V domains shown, Fab; also called ZZ1RUF-A01) VH: EVQLLESGGGLVQPGGSLRLSCAASGFTFSSYAMNWVRQAPGKGLEWVSTISYHGHHISYADSHHHRFTISRDNSKNTLYLQMNSLRAEDTAVYYCARIHHDPMDHWGQGTLVTVSS VL: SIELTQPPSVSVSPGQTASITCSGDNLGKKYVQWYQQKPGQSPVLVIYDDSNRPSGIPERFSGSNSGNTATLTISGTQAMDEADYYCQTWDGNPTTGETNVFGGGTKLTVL
0.00495 s⁻¹
